System: p38-delta
Experimental Context: concentration: 1 μM,replicates: in singlicate; n = 1;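 also: KINOMEscan kinase panel screen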
Reported %Inh by item:
Property: %Inh (%)

[[record]]
molecule = "Cc1ccn2nc(-c3ccc(F)cc3)c(-c3ccncc3)c2c1.Cl"
property = "%Inh"
numeric_readout = 52

[[record]]
molecule = "CS(=O)c1ccc(-c2coc3ccc(-c4n[nH]c(=O)o4)cc23)cc1 (centres unmarked)"
property = "%Inh"
numeric_readout = 0

[[record]]
molecule = "O=C(Nc1cccc(C(F)(F)F)c1)c1cccc(Oc2ccc3nccn3n2)c1"
property = "%Inh"
numeric_readout = 0

[[record]]
molecule = "O=C(Nc1ccc(Oc2ccc3nc(NC(=O)C4CC4)cn3n2)c(F)c1)c1cccn(-c2ccccc2)c1=O"
property = "%Inh"
numeric_readout = 0

[[record]]
molecule = "Cc1cccc(-c2nc(Nc3ccncc3)c3sccc3n2)n1"
property = "%Inh"
numeric_readout = 0


###

Each record here notes measured %Inh.
System: ADCK4
Experimental Context: concentration: 1 μM,replicates: in singlicate; n = 1
Property: %Inh (%)

[[record]]
molecule = "Cc1ccc(CC(=O)N2CCc3cc(-c4cn(C)c5ncnc(N)c45)ccc32)cc1 [GSK2634758]"
numeric_readout = 9

[[record]]
molecule = "C[C@@H]1CNc2c(sc3ccc4nc(-c5ccncc5)ccc4c23)C(=O)N1"
numeric_readout = 0

[[record]]
molecule = "CN1CCN(CCCNc2nccc(-c3c(-c4ccc(F)cc4)nn4cc(C(N)=O)ccc34)n2)CC1 [GW622475]"
numeric_readout = 100

[[record]]
molecule = "CC(=O)Nc1ccc(-c2cc3ncnc(SCC(=O)O)c3s2)cc1"
numeric_readout = 0

[[record]]
molecule = "Cl.c1ccc(Oc2ccc(Nc3ccnc4cc(-c5ccc(CN6CCNCC6)o5)ccc34)cc2)nc1 [GW567142]"
numeric_readout = 18

[[record]]
molecule = "FC(F)(F)c1cc(Br)cc(Nc2nccc(-c3cnn4ncccc34)n2)c1 [GW810578]"
numeric_readout = 27

[[record]]
molecule = "CSc1nccc(-c2c(-c3ccc(F)cc3)ncn2CCCN2CCOCC2)n1.Cl [SB-217146]"
numeric_readout = 25

[[record]]
molecule = "CCNCC(Cc1ccccc1)NC(=O)c1cc(Br)c(-c2ccnc3[nH]ccc23)s1.Cl.Cl (stereo not drawn) [GSK1383280]"
numeric_readout = 89

[[record]]
molecule = "CC(=O)Nc1nc2cnc(Nc3cc(NC(=O)c4cccc(CC(C)(C)C#N)c4)ccc3C)nc2s1"
numeric_readout = 0

[[record]]
molecule = "Cc1ccc(Nc2ccnc(Nc3ccc4c(c3)CS(=O)(=O)C4)n2)cc1O.Cl [GW579362]"
numeric_readout = 100

[[record]]
molecule = "CN(c1ccc2c(c1)nc(NCc1ccc(F)cc1)n2C)c1ccnc(Nc2ccc(CS(C)(=O)=O)cc2)n1.Cl [GW813244]"
numeric_readout = 21

[[record]]
molecule = "NC(=O)c1ccc(-c2cc3ncnc(SCC(=O)O)c3s2)cc1"
numeric_readout = 3

[[record]]
molecule = "Cl.Cl.NC[C@H](CC1CCCCC1)NC(=O)c1ccc(-c2ccnc3[nH]ccc23)s1 [GSK1581428]"
numeric_readout = 2

[[record]]
molecule = "CC(C)c1nc(-c2cccc(NS(=O)(=O)c3ccccc3)c2)c(-c2ccnc(Nc3ccc4c(c3)CN(C)CC4)n2)s1 [GSK1649598]"
numeric_readout = 97.4

[[record]]
molecule = "O=C(NCC1CC1)c1ccc(-c2cc(C(=O)NC3CC3)ccc2F)cc1 [GW810445]"
numeric_readout = 23

[[record]]
molecule = "C[C@@H](Oc1cc(-n2cnc3ccc(-c4ccncc4)cc32)sc1C(N)=O)c1ccccc1Cl [GSK483724]"
numeric_readout = 76

[[record]]
molecule = "COC(=O)c1cccc(NC(=O)NC2CCN(c3ccnc(NCc4ccc(F)cc4)n3)CC2)c1 [GSK1379860]"
numeric_readout = 18

[[record]]
molecule = "COc1cccc(C2=C(Nc3cccc(Cl)c3)C(=O)NC2=O)c1 [SB-341556]"
numeric_readout = 0

[[record]]
molecule = "NC(=O)Nc1sc(-c2ccc(F)cc2)cc1C(N)=O [GW789449]"
numeric_readout = 7

[[record]]
molecule = "CCOC(=O)N1CCC(n2cnc(-c3ccc(F)cc3)c2-c2ccnc(N)n2)CC1 [SB-219952]"
numeric_readout = 20

[[record]]
molecule = "COc1cc2c(Nc3ccc(NC(=O)c4ccccc4)cc3)ncnc2cc1OCCCN1CCOCC1 [GSK301329]"
numeric_readout = 0

[[record]]
molecule = "COC(=O)c1cccc(NC(=O)NC2CCN(c3ccnc(Nc4cc(OC)c(OC)c(OC)c4)n3)C2)c1 (stereo not drawn) [GSK1379767]"
numeric_readout = 60

[[record]]
molecule = "Cn1cc(-c2cccc3c(N)c(C(N)=O)nnc23)cn1"
numeric_readout = 11

[[record]]
molecule = "O=C1NCCc2[nH]c(-c3ccncc3)cc21"
numeric_readout = 0

[[record]]
molecule = "CC(=O)c1c(-c2ccncc2)[nH]c(-c2ccncc2)c1C [GW493036]"
numeric_readout = 46

[[record]]
molecule = "CCn1c(-c2nonc2N)nc2cncc(CNC3CCNCC3)c21.Cl [SB-747651]"
numeric_readout = 11

[[record]]
molecule = "Cl.Nc1n[nH]c2cc(-c3ccccn3)ccc12 [GSK2189892]"
numeric_readout = 17

[[record]]
molecule = "COc1cccc(CNC(=O)NC2CCN(c3ccnc(Nc4cc(OC)c(OC)c(OC)c4)n3)C2)c1 (stereo not drawn) [GSK1379765]"
numeric_readout = 92.3

[[record]]
molecule = "OCCn1cc(-c2cnc3nnn(Cc4ccc5ncccc5c4)c3n2)cn1"
numeric_readout = 0

[[record]]
molecule = "COc1cc(Nc2nccc(N3CCC(NC(=O)c4cccc(C#N)c4)C3)n2)cc(OC)c1OC (stereo not drawn) [GSK1379751]"
numeric_readout = 50

[[record]]
molecule = "Cc1n[nH]c2cc(Nc3ccnc(Nc4cccc(CN5CCOCC5)c4)n3)ccc12 [GW682569]"
numeric_readout = 97.1

[[record]]
molecule = "CN1CCN(CCNc2nc3cc(Oc4ccc(NC(=O)Nc5cc(C(F)(F)F)ccc5F)cc4)ccc3[nH]2)CC1.Cl.Cl [GW768504]"
numeric_readout = 22

[[record]]
molecule = "Cc1ccn2nc(-c3ccc(F)cc3)c(-c3ccncc3)c2c1.Cl [GW457859]"
numeric_readout = 59

[[record]]
molecule = "CS(=O)(=O)Nc1ccc(-c2ccnc3[nH]ccc23)cc1 [GSK993273]"
numeric_readout = 22

[[record]]
molecule = "c1ccc(Oc2ccc(Nc3ccnc4ccc(-c5ccccn5)cc34)cc2)cc1 [GW407034]"
numeric_readout = 19

[[record]]
molecule = "Cc1cccc2c(-c3ccncc3)c(-c3ccc(F)cc3)nn12.Cl [GW461487]"
numeric_readout = 28


###

%Inh for assorted compounds
Test system: NEK1
Experimental Context: concentration: 1 μM,replicates: in singlicate; n = 1
Property: %Inh (%)

[[record]]
compound = "Cl.Nc1n[nH]c2cc(-c3ccccn3)ccc12"
property = "%Inh"
result_units = "%"
numeric_readout = 0

[[record]]
compound = "CCn1c(-c2nonc2N)nc2cncc(CNC3CCNCC3)c21.Cl"
property = "%Inh"
result_units = "%"
numeric_readout = 0

[[record]]
compound = "O=C(NCC1CC1)c1ccc(-c2cc(C(=O)NC3CC3)ccc2F)cc1"
property = "%Inh"
result_units = "%"
numeric_readout = 3

[[record]]
compound = "CCn1c(-c2nonc2N)nc2cncc(Br)c21"
property = "%Inh"
result_units = "%"
numeric_readout = 0

[[record]]
compound = "COC(=O)c1cccc(NC(=O)NC2CCN(c3ccnc(NCc4ccc(F)cc4)n3)CC2)c1"
property = "%Inh"
result_units = "%"
numeric_readout = 0

[[record]]
compound = "O=C(Nc1cccc(C(F)(F)F)c1)c1cccc(Oc2ccc3nccn3n2)c1"
property = "%Inh"
result_units = "%"
numeric_readout = 0

[[record]]
compound = "COc1ccc(Nc2nccc(N3CCC(NC(=O)c4cccc(C#N)c4)C3)n2)cc1 (stereo not drawn)"
property = "%Inh"
result_units = "%"
numeric_readout = 0

[[record]]
compound = "CN1CCN(CCNc2nc3cc(Oc4ccc(NC(=O)Nc5cc(C(F)(F)F)ccc5F)cc4)ccc3[nH]2)CC1.Cl.Cl"
property = "%Inh"
result_units = "%"
numeric_readout = 0

[[record]]
compound = "Cn1ccc2ncnc(Oc3ccc(NC(=O)Nc4cncc(C(F)(F)F)c4)c(Cl)c3)c21"
property = "%Inh"
result_units = "%"
numeric_readout = 0

[[record]]
compound = "Cc1ccn2nc(-c3ccc(F)cc3)c(-c3ccncc3)c2c1.Cl"
property = "%Inh"
result_units = "%"
numeric_readout = 12

[[record]]
compound = "CN(c1ccccc1CNc1nc(Nc2ccc3c(c2)CC(=O)N3)ncc1C(F)(F)F)S(C)(=O)=O"
property = "%Inh"
result_units = "%"
numeric_readout = 0

[[record]]
compound = "CC(=O)Nc1nc2cnc(Nc3cc(NC(=O)c4cccc(CC(C)(C)C#N)c4)ccc3C)nc2s1"
property = "%Inh"
result_units = "%"
numeric_readout = 13

[[record]]
compound = "C[C@@H]1CNc2c(sc3ccc4nc(-c5ccc(O)cc5)ccc4c23)C(=O)N1"
property = "%Inh"
result_units = "%"
numeric_readout = 0

[[record]]
compound = "O=C1NCCc2[nH]c(-c3ccncc3)cc21"
property = "%Inh"
result_units = "%"
numeric_readout = 0

[[record]]
compound = "COc1cccc(C2=C(Nc3cccc(Cl)c3)C(=O)NC2=O)c1"
property = "%Inh"
result_units = "%"
numeric_readout = 0

[[record]]
compound = "CC(=O)c1c(-c2ccncc2)[nH]c(-c2ccncc2)c1C"
property = "%Inh"
result_units = "%"
numeric_readout = 0

[[record]]
compound = "CCN1CCN(CCCC(=O)Nc2n[nH]c3nc(-c4ccc(O)cc4)c(Br)cc23)CC1"
property = "%Inh"
result_units = "%"
numeric_readout = 0

[[record]]
compound = "CNC(=O)c1ccccc1Nc1nc(Nc2cccc(CS(C)(=O)=O)c2)ncc1C.O=CO"
property = "%Inh"
result_units = "%"
numeric_readout = 71

